Below, each of the compounds is paired with its reported area under concentration-response curve value.
# Tested on: CU-ACC1
# test_name: area under concentration-response curve (viability) (AUC (a.u.)); higher = less active
# measurement_context: 48 h
// return just the number, without any unit appended

Here is how some compounds turned out for area under concentration-response curve.
CCOC(=O)[C@@H](N)CCC(=O)N[C@@H](CSCc1ccccc1)C(=O)N[C@@H](C(=O)OCC)c1ccccc1
594
CC(=O)OCCN1C(=O)c2c(C)nc3ccc([S+](=O)([O-])N4CCOCC4)cc3c2C1=O
547
CNC(=O)CN1CCC(Oc2cc3c(Nc4cccc(Cl)c4F)ncnc3cc2OC)CC1
501
COc1cc2ncnc(Nc3cccc(Cl)c3)c2cc1OC
558
CC(C)NCC(O)c1ccc(N[S+](C)(=O)[O-])cc1 (stereo not drawn)
530
CC1(C)[C@@H](O[C@H]2O[C@H](C(=O)O)[C@@H](O)[C@H](O)[C@H]2O[C@@H]2O[C@H](C(=O)O)[C@@H](O)[C@H](O)[C@H]2O)CC[C@]2(C)[C@H]3C(=O)C=C4[C@@H]5C[C@@](C)(C(=O)O)CC[C@]5(C)CC[C@@]4(C)[C@]3(C)CC[C@@H]12
541
Cn1ncc(Cl)c1-c1cc(C(=O)N[C@H](CN)Cc2cccc(F)c2)sc1Cl
305

Now for another entry.
So what's the measured area under concentration-response curve for this one? CN1C[C@@H]2c3ccccc3Oc3ccc(Cl)cc3[C@H]2C1
553

---

Below, each of the molecules is paired with its reported AC50 viability value.
# Tested on: CU-ACC2
# test_name: AC50 viability; higher = less potent
# measurement_context: 48 h
Please respond with the number in µM and leave the unit unwritten.

Here is how some molecules turned out for AC50 viability.
CC(=O)NCC(=O)N1[C@@H]2CC[C@H]1c1ccc(Nc3ncc(C(F)(F)F)c(NC4CCC4)n3)cc12
10.5
CC[C@]12\C=C/CN3CC[C@]4([C@@H](N(C)C5=C4C=C(C(=C5)OC)[C@]6(CC7C[C@H](CN(C7)CC8=C6[NH]C9=C8C=CC=C9)C(C)(F)F)C(=O)OC)[C@](O)([C@@H]1OC(C)=O)C(=O)OC)[C@H]23 (stereo partly specified)
5.9
CC(C)NC(=O)COc1cccc(-c2nc(Nc3ccc4[nH]ncc4c3)c3ccccc3n2)c1
3.72
C[C@H](NC(=O)[C@@H]1C[C@@H](O)CN1C(=O)[C@@H](NC(=O)COCCCOCCNC(=O)C[C@@H]2\N=C(C3=CC=C(Cl)C=C3)/C4=C(SC(=C4C)C)[N]5C(=NN=C25)C)C(C)(C)C)C6=CC=C(C=C6)C7=C(C)N=CS7
8.33
O=C(NCc1ccc([S+](=O)([O-])c2cccc(C(F)(F)F)c2)cc1)c1cnc2[nH]ncc2c1
0.0186

Now for another entry.
So what's the measured AC50 viability for this one? C=C1/C(=C\C=C2/CCC[C@]3(C)[C@@H]([C@H](C)/C=C/[C@H](C)C(C)C)CC[C@@H]23)C[C@@H](O)C[C@@H]1O
7.42

---

# System: CU-ACC1
# test_name: ExcessHSA synergy score with TAK-243; higher = less synergy (negative = synergistic)
# measurement_context: combined with: TAK-243 (MLN-7243) matrix, 9-point 1:2 dilution
quantity_name: ExcessHSA synergy score with TAK-243
// return just the number, without any unit appended

Here is how some molecules turned out for ExcessHSA synergy score with TAK-243.
O=C1NC(=O)C(c2cnc3ccccn23)=C1c1cn2c3c(cc(F)cc13)CN(C(=O)N1CCCCC1)CC2
432
C[C@H]1CCN1c1nc(N2C[C@@H]3[C@@H](CC(=O)O)[C@@H]3C2)cc(C(F)(F)F)n1 [Ketohexokinase inhibitor 1]
-31.2
O=C(c1ccc(F)c(F)c1Nc1ccc(I)cc1F)N1CC(O)([C@@H]2CCCCN2)C1
450

Now for another entry.
So what's the measured ExcessHSA synergy score with TAK-243 for this one? COc1ccc(C(=O)N2CCN(c3ccc4c(c3)CCC(=O)N4)CC2)cc1OC
628
